system name: Prostaglandin G/H synthase 1 (Homo sapiens, UniProt P23219)
Sequence (P23219 whole entry): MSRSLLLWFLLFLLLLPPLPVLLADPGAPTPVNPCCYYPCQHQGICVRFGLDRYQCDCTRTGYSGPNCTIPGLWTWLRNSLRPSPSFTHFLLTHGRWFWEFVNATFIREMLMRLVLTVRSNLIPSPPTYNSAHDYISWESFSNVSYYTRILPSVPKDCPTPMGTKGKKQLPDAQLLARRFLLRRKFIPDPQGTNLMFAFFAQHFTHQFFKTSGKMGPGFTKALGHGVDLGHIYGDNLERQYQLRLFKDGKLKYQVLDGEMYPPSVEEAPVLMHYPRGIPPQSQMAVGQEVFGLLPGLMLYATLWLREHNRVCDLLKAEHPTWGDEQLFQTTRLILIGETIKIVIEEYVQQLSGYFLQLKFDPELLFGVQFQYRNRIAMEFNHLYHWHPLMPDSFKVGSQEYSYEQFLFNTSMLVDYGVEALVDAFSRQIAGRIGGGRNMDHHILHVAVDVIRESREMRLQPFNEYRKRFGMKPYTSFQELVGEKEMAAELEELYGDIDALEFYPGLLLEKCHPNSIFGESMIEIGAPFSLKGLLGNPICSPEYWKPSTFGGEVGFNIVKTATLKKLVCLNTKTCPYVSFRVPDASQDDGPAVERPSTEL
experiment: Inhibition of COX1 at 1000 uM
Think of 60% as a floor: if inhibition stands on it or above, it is YES; beneath it, NO.

Solved entries (count: 4):
CC(=O)Oc1ccccc1C(=O)O	NO
O=C(/C=C/c1ccc(O)c(O)c1)O[C@H](Cc1ccc(O)c(O)c1)C(=O)O	NO
COc1cc(-c2cc(=O)c3c(O)c(OC)c(OC)c(O)c3o2)ccc1O	NO
C=CCc1ccc(O)c(OC)c1	YES

Query block: Determine whether measured inhibition meets or exceeds 60% for "COc1cc(-c2cc(=O)c3cc(OC)c(OC)cc3o2)ccc1O"
Result block: NO

Query block: Then this compound: "O=c1cc(-c2ccc(O)cc2)oc2cc(O)cc(O)c12"
Result block: YES

----------
The compounds below have reported IC50 for Prostaglandin G/H synthase 1 (Homo sapiens, UniProt P23219).
State just the number; it will be interpreted in µM.

Solved cases (5 shown):
CC/C=C/C/C=C/C/C=C/C/C=C/CCSCCCC(=O)O	81
C=CCc1ccc(O)c(OC)c1	11
COc1cc(/C=C/CO)cc(OC)c1O[C@@H]1O[C@H](CO)[C@@H](O)[C@H](O)[C@H]1O	36
O=C(/C=C/c1ccc(O)c(O)c1)OCCc1ccccc1	58
COc1cc(CNC(=O)CCCC/C=C/C(C)C)ccc1O	3.8

Query block: # query: IC50 of entry "Oc1cc(O)c2c(c1)O[C@H](c1cc(O)c(O)c(O)c1)[C@@H](O)C2"
Result block: 95

Query block: Then this compound: CC(/C=C/C=C(\C)C(=O)O)=C\C=C\C=C(C)\C=C\C=C(/C)C(=O)O [TRANSCROCETIN]
Result block: 28
